All figures here come from patent US20260327204A1.

biological target: CDK13 (Homo sapiens, UniProt Q14004); assay: Western blot degradation of CDK13 (Example 2); assay type: cell-based; design: degradation of CDK12/13 protein in leukemia cells KASUMI-1, MV4-11, and Jurkat; endogenous in cells; conditions: DC50 classes; cell line not given; read-out: CDK13 degradation Activity
Sequence (Q14004 whole entry): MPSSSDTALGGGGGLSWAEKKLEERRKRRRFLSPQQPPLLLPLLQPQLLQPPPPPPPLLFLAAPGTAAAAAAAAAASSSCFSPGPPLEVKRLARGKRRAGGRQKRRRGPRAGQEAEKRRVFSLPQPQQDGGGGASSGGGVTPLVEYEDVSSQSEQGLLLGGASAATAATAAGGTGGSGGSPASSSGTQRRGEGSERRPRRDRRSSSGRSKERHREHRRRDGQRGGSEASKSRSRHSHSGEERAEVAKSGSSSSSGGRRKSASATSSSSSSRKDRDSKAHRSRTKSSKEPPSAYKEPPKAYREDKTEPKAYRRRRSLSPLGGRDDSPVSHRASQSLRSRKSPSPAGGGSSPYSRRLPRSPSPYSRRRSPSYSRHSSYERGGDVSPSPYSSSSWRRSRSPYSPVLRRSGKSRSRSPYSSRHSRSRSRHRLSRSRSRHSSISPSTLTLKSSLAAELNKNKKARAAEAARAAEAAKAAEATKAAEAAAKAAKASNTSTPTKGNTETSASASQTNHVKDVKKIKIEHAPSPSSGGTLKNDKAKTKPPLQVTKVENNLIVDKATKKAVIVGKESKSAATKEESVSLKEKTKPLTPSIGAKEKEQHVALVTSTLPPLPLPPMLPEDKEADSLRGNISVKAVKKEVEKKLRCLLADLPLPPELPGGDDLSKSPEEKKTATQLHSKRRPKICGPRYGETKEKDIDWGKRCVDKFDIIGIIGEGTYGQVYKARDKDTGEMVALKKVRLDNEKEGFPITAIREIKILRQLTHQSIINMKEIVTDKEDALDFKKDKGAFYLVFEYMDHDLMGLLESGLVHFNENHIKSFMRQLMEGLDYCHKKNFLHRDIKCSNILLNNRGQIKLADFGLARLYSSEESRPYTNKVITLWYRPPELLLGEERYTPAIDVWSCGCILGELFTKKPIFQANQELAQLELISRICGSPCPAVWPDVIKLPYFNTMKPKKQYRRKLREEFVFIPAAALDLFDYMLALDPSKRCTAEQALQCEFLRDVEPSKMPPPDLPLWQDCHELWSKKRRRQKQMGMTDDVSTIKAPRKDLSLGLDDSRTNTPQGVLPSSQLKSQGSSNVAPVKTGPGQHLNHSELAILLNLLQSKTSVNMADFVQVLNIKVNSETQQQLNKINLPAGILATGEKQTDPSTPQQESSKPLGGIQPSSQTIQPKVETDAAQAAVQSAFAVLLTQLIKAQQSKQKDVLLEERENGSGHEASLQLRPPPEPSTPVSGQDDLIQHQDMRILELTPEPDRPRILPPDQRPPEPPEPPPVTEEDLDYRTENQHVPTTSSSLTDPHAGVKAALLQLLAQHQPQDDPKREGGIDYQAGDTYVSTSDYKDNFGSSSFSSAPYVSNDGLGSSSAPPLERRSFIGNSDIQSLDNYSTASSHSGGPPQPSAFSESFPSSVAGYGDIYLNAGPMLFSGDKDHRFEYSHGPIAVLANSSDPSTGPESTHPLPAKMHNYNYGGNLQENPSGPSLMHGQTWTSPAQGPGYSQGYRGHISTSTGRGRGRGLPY
Sequence (O75909 whole entry partner): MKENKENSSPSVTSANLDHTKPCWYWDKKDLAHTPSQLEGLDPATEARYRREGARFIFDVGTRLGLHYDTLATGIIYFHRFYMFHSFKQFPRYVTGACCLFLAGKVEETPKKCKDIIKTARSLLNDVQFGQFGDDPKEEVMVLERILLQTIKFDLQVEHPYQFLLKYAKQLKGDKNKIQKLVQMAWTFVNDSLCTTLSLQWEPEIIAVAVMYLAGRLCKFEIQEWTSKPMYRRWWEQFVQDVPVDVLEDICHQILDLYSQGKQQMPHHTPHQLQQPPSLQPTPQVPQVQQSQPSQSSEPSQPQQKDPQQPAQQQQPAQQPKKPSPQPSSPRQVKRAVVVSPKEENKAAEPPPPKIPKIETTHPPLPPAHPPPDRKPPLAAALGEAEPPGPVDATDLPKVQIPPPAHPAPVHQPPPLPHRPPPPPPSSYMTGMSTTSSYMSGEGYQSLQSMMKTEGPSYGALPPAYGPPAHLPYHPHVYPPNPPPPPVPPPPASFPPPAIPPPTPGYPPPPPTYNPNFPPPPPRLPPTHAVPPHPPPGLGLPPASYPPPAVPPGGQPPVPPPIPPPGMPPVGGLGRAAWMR
experimental readout: DC50

Consider the reported DC50 for these compounds:
compound	DC50
Cc1ncsc1-c1ccc([C@H](C)NC(=O)[C@@H]2C[C@@H](O)CN2C(=O)[C@@H](NC(=O)CN2CCN(c3ccc(-c4ccc(N(C(=O)NCc5ccccc5)[C@H]5CC[C@H](Nc6ccc(C#N)cn6)CC5)cc4)cn3)CC2)C(C)(C)C)cc1 [Formula 75]	< 100 nM
Cc1ncsc1-c1ccc([C@H](C)NC(=O)[C@@H]2C[C@@H](O)CN2C(=O)[C@@H](NC(=O)CN2CCN(c3ccc(-c4ccc5c(c4)CCCN(Cc4ccccc4)C(=O)N5[C@H]4CC[C@H](Nc5ccc(C#N)cn5)CC4)cn3)CC2)C(C)(C)C)cc1	< 100 nM
Cc1ncsc1-c1ccc([C@H](C)NC(=O)[C@@H]2C[C@@H](O)CN2C(=O)[C@@H](NC(=O)CN2CCN(c3ncc(-c4ccc(N(C(=O)NCc5ccccc5)[C@H]5CC[C@H](Nc6ccc(C#N)cn6)CC5)cc4)cn3)CC2)C(C)(C)C)cc1 [Formula 82]	< 100 nM
Cc1ncsc1-c1ccc([C@H](C)NC(=O)[C@@H]2C[C@@H](O)CN2C(=O)[C@@H](NC(=O)COCCOc2ccc(-c3ccc(N(C(=O)NCc4ccccc4)[C@H]4CC[C@H](Nc5ccc(C#N)cn5)CC4)cc3)cn2)C(C)(C)C)cc1	100 to 500 nM
Cc1ncsc1-c1ccc([C@H](C)NC(=O)[C@@H]2C[C@@H](O)CN2C(=O)[C@@H](NC(=O)CN2CCN(c3ncc(-c4ccc(N(C(=O)NCc5ccccc5)[C@H]5CC[C@H](Nc6ccc(C#N)cn6)CC5)cc4)cn3)CC2)C(C)(C)C)cc1 [Formula 79]	< 100 nM

Which measured DC50 value corresponds to Cc1ncsc1-c1ccc([C@H](C)NC(=O)[C@@H]2C[C@@H](O)CN2C(=O)[C@@H](NC(=O)COCCOCCOCCOCCn2cc(-c3ccc(N(C(=O)NCc4ccccc4)[C@H]4CC[C@H](Nc5ccc(C#N)cn5)CC4)cc3)ccc2=O)C(C)(C)C)cc1 ?
1000 to 3000 nM
